target: Human GPR40 (Homo sapiens); assay: Inositol phosphate turnover (IP1) assay in HEK cells stably expressing human GPR40; format: cell-based; set-up: expressed in transfected cells; details: HEK cells stably expressing human GPR40, 3H-inositol labeling, 60 min compound incubation
pEC50: −log10 of the molar value.
# key: entry, value: pEC50
endpoint: pEC50

INSERT INTO results (compound, number) VALUES
  ('Cc1nc(OCC2CCOCC2)ccc1-c1ccc(F)c(COc2ccc3c(c2)C[C@H]2[C@H](C(=O)O)[C@@H]32)c1', 8.10),
  ('Cc1nc(N2CC(S(C)(=O)=O)C2)ccc1-c1ccc(F)c(COc2ccc3c(c2)C[C@H]2[C@H](C(=O)O)[C@@H]32)c1', 7.58),
  ('Cc1ccc(COc2ccc3c(c2)C[C@H]2[C@H](C(=O)O)[C@@H]32)cc1-c1cnc2c(ccn2CCCS(C)(=O)=O)c1', 7.07),
  ('Cc1nc(OC[C@@H]2CCCC[C@H]2S(C)(=O)=O)ccc1-c1ccc(F)c(COc2ccc3c(c2)C[C@H]2[C@H](C(=O)O)[C@@H]32)c1', 7.41),
  ('Cc1nc(OC2CCS(=O)(=O)CC2)ccc1-c1ccc(F)c(C(C)Oc2ccc3c(c2)C[C@H]2[C@H](C(=O)O)[C@@H]32)c1 (stereo partly drawn)', 5.86),
  ('Cc1cc(OCCCS(C)(=O)=O)nc(C)c1-c1ccc(F)c(COc2ccc3c(c2)C[C@H]2[C@H](C(=O)O)[C@@H]32)c1', 7.65);

====

# key: entry, value: EC50
target: Human GPR40 (Homo sapiens, UniProt O14842); test: FLIPR assay: agonist-induced calcium mobilization in GPR40/CHO NFAT BLA cells; type: cell-based; set-up: expressed in transfected cells; host or cells: CHO cells stably expressing NFAT BLA (beta-lactamase)
Sequence (O14842 whole entry): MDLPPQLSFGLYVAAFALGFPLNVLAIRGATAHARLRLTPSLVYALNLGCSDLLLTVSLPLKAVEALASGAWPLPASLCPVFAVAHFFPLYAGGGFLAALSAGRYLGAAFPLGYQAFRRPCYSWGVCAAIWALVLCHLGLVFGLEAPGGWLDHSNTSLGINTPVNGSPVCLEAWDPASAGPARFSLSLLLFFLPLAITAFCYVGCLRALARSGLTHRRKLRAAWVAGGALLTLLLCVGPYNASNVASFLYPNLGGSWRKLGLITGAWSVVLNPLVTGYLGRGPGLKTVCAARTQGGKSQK
endpoint: EC50

INSERT INTO results (molecule, result) VALUES
  ('Cc1nc(OC[C@@H]2CCCC[C@H]2S(C)(=O)=O)ccc1-c1ccc(F)c(COc2ccc3c(c2)C[C@H]2[C@H](C(=O)O)[C@@H]32)c1', '67.9 nM'),
  ('Cc1nc(N2CCC(C#N)(c3ccccc3)CC2)nc(C)c1-c1ccc(F)c(COc2ccc3c(c2)C[C@H]2[C@H](C(=O)O)[C@@H]32)c1F', '38.7 nM'),
  ('Cc1cc(OCCCS(C)(=O)=O)ncc1-c1cccc(COc2ccc3c(c2)C[C@H]2[C@H](C(=O)O)[C@@H]32)c1C', '232 nM'),
  ('Cc1nc(OCC2CCOCC2)ccc1-c1ccc(F)c(COc2ccc3c(c2)C[C@H]2[C@H](C(=O)O)[C@@H]32)c1', '18.5 nM'),
  ('Cc1nc(OCC2CCC[C@H](O)[C@@H]2O)ccc1-c1ccc(F)c(COc2ccc3c(c2)C[C@H]2[C@H](C(=O)O)[C@@H]32)c1 (stereo partly drawn)', '48.9 nM'),
  ('Cc1nc(OC2CCC(C(C)(C)O)CC2)ccc1-c1ccc(F)c(COc2ccc3c(c2)C[C@H]2[C@H](C(=O)O)[C@@H]32)c1 (stereo partly drawn)', '74.1 nM');

====

target: Human GPR40 (Homo sapiens); experiment: Inositol phosphate turnover (IP1) assay in HEK cells stably expressing human GPR40; format: cell-based; parameters: expressed in transfected cells; conditions: HEK cells stably expressing human GPR40, 3H-inositol labeling, 60 min compound incubation
pEC50: −log10 of the molar value.
Quick rule: pEC50 of at least 8 means true (1), below that means false (0).

INSERT INTO results (compound, class_name) VALUES
  ('Cc1cc(OCCC2(O)COC2)ncc1-c1ccc(F)c(COc2ccc3c(c2)C[C@H]2[C@H](C(=O)O)[C@@H]32)c1', 'false (0)'),
  ('CS(=O)(=O)CCCOc1cc(C(F)(F)F)c(-c2ccc(F)c(COc3ccc4c(c3)C[C@H]3[C@H](C(=O)O)[C@@H]43)c2)cn1', 'true (1)'),
  ('Cc1nc(N2[C@@H]3CC[C@H]2CC(O)C3)ccc1-c1ccc(F)c(COc2ccc3c(c2)C[C@H]2[C@H](C(=O)O)[C@@H]32)c1 (stereo partly drawn)', 'false (0)'),
  ('Cc1nc(N2CCC(C#N)(c3ccccc3)CC2)nc(C)c1-c1ccc(F)c(COc2ccc3c(c2)C[C@H]2[C@H](C(=O)O)[C@@H]32)c1F', 'false (0)'),
  ('Cc1c(-c2ccc(F)c(COc3ccc4c(c3)C[C@H]3[C@H](C(=O)O)[C@@H]43)c2)ccc2nc(-c3ccncc3)sc12', 'false (0)');
